- METHOD NOTES: Organ biodistribution of [^68Ga]Ga-DOTATATE by ex vivo gamma counting
- Format: in vivo, New Zealand White rabbits
- SETTINGS: male, New Zealand White, rabbit, bone marrow, intravenous, 190 MBq, total radioactivity, male athero4mo rabbits, 200 min after tracer injection, median (IQR), N = 9; read-out: Tissue radioactivity, bone marrow
RECORDED METRIC: tissue uptake at 200 min (%ID/g)
Respond numerically; units are %ID/g and should not be typed.

Prompt line: Fill blank: measured tissue uptake at 200 min of the compound C[C@@H](O)[C@H](NC(=O)[C@@H]1CSSC[C@H](NC(=O)[C@@H](Cc2ccccc2)NC(=O)CN2CCN(CC(=O)O)CCN(CC(=O)O)CCN(CC(=O)O)CC2)C(=O)N[C@@H](Cc2ccc(O)cc2)C(=O)N[C@H](Cc2c[nH]c3ccccc23)C(=O)N[C@@H](CCCCN)C(=O)N[C@@H]([C@@H](C)O)C(=O)N1)C(=O)O [[^68Ga]Ga-DOTATATE, metal not drawn] is ____.
Response line: 0.006

###

- METHOD NOTES: Organ biodistribution of [^68Ga]Ga-DOTATATE by ex vivo gamma counting
- Format: in vivo, New Zealand White rabbits
- SETTINGS: male, New Zealand White, rabbit, abdominal aorta, iv, 190 MBq, total radioactivity, male athero4mo rabbits, 200 min after tracer injection, median (IQR), N = 9; read-out: Tissue radioactivity, abdominal aorta
RECORDED METRIC: tissue uptake at 200 min (%ID/g)
Respond numerically; units are %ID/g and should not be typed.

Prompt line: Fill blank: measured tissue uptake at 200 min of the compound C[C@@H](O)[C@H](NC(=O)[C@@H]1CSSC[C@H](NC(=O)[C@@H](Cc2ccccc2)NC(=O)CN2CCN(CC(=O)O)CCN(CC(=O)O)CCN(CC(=O)O)CC2)C(=O)N[C@@H](Cc2ccc(O)cc2)C(=O)N[C@H](Cc2c[nH]c3ccccc23)C(=O)N[C@@H](CCCCN)C(=O)N[C@@H]([C@@H](C)O)C(=O)N1)C(=O)O [[^68Ga]Ga-DOTATATE, metal not drawn] is ____.
Response line: 0.017

###

- METHOD NOTES: Timed organ biodistribution of [^64Cu]Cu-DOTATATE by ex vivo gamma counting
- Type: in vivo, mice
- SETTINGS: mouse, stomach, intravenous, 1.85 MBq, total radioactivity; female C57BL/6 mice, 15 min after injection, median (IQR), N=3-7; read-out: Tissue radioactivity, stomach
RECORDED METRIC: tissue uptake at 0.25 h (%ID/g)
Respond numerically; units are %ID/g and should not be typed.

Prompt line: Fill blank: measured tissue uptake at 0.25 h of the molecule C[C@@H](O)[C@H](NC(=O)[C@@H]1CSSC[C@H](NC(=O)[C@@H](Cc2ccccc2)NC(=O)CN2CCN(CC(=O)O)CCN(CC(=O)O)CCN(CC(=O)O)CC2)C(=O)N[C@@H](Cc2ccc(O)cc2)C(=O)N[C@H](Cc2c[nH]c3ccccc23)C(=O)N[C@@H](CCCCN)C(=O)N[C@@H]([C@@H](C)O)C(=O)N1)C(=O)O [[^64Cu]Cu-DOTATATE, metal not drawn] is ____.
Response line: 5

###

- METHOD NOTES: Timed organ biodistribution of [^64Cu]Cu-DOTATATE by ex vivo gamma counting
- Format: in vivo, mice
- SETTINGS: mouse, bladder, intravenous, 1.85 MBq, total radioactivity; female Apoe^-/- mice 12 weeks on Western Diet, 5 min after injection, median (IQR), N=3-8; read-out: Tissue radioactivity, bladder
RECORDED METRIC: tissue uptake at 5 min (%ID/g)
Respond numerically; units are %ID/g and should not be typed.

Prompt line: Fill blank: measured tissue uptake at 5 min of the compound C[C@@H](O)[C@H](NC(=O)[C@@H]1CSSC[C@H](NC(=O)[C@@H](Cc2ccccc2)NC(=O)CN2CCN(CC(=O)O)CCN(CC(=O)O)CCN(CC(=O)O)CC2)C(=O)N[C@@H](Cc2ccc(O)cc2)C(=O)N[C@H](Cc2c[nH]c3ccccc23)C(=O)N[C@@H](CCCCN)C(=O)N[C@@H]([C@@H](C)O)C(=O)N1)C(=O)O [[^64Cu]Cu-DOTATATE, metal not drawn] is ____.
Response line: 98.7

###

- METHOD NOTES: Timed organ biodistribution of [^64Cu]Cu-DOTATATE by ex vivo gamma counting
- Assay type: in vivo, mice
- SETTINGS: mouse, thoracic aorta, intravenous, 1.85 MBq, total radioactivity; female C57BL/6 mice, 60 min after injection, median (IQR), N=3-7; read-out: Tissue radioactivity, thoracic aorta
RECORDED METRIC: tissue uptake at 1 h (%ID/g)
Respond numerically; units are %ID/g and should not be typed.

Prompt line: Fill blank: measured tissue uptake at 1 h of the molecule C[C@@H](O)[C@H](NC(=O)[C@@H]1CSSC[C@H](NC(=O)[C@@H](Cc2ccccc2)NC(=O)CN2CCN(CC(=O)O)CCN(CC(=O)O)CCN(CC(=O)O)CC2)C(=O)N[C@@H](Cc2ccc(O)cc2)C(=O)N[C@H](Cc2c[nH]c3ccccc23)C(=O)N[C@@H](CCCCN)C(=O)N[C@@H]([C@@H](C)O)C(=O)N1)C(=O)O [[^64Cu]Cu-DOTATATE, metal not drawn] is ____.
Response line: 1.2

###

- METHOD NOTES: Timed organ biodistribution of [^64Cu]Cu-DOTATATE by ex vivo gamma counting
- Assay type: in vivo, mice
- SETTINGS: mouse, stomach, intravenous, 1.85 MBq, total radioactivity; female C57BL/6 mice, 1 min after injection, median (IQR), N=3-7; read-out: Tissue radioactivity, stomach
RECORDED METRIC: tissue uptake at 1 min (%ID/g)
Respond numerically; units are %ID/g and should not be typed.

Prompt line: Fill blank: measured tissue uptake at 1 min of the compound C[C@@H](O)[C@H](NC(=O)[C@@H]1CSSC[C@H](NC(=O)[C@@H](Cc2ccccc2)NC(=O)CN2CCN(CC(=O)O)CCN(CC(=O)O)CCN(CC(=O)O)CC2)C(=O)N[C@@H](Cc2ccc(O)cc2)C(=O)N[C@H](Cc2c[nH]c3ccccc23)C(=O)N[C@@H](CCCCN)C(=O)N[C@@H]([C@@H](C)O)C(=O)N1)C(=O)O [[^64Cu]Cu-DOTATATE, metal not drawn] is ____.
Response line: 2.3

###

- METHOD NOTES: Timed organ biodistribution of [^64Cu]Cu-DOTATATE by ex vivo gamma counting
- Assay type: in vivo, mice
- SETTINGS: mouse, bladder, intravenous, 1.85 MBq, total radioactivity; female Apoe^-/- mice 12 weeks on Western Diet, 120 min after injection, median (IQR), N=3-8; read-out: Tissue radioactivity, bladder
RECORDED METRIC: tissue uptake at 2 h (%ID/g)
Respond numerically; units are %ID/g and should not be typed.

Prompt line: Fill blank: measured tissue uptake at 2 h of the compound C[C@@H](O)[C@H](NC(=O)[C@@H]1CSSC[C@H](NC(=O)[C@@H](Cc2ccccc2)NC(=O)CN2CCN(CC(=O)O)CCN(CC(=O)O)CCN(CC(=O)O)CC2)C(=O)N[C@@H](Cc2ccc(O)cc2)C(=O)N[C@H](Cc2c[nH]c3ccccc23)C(=O)N[C@@H](CCCCN)C(=O)N[C@@H]([C@@H](C)O)C(=O)N1)C(=O)O [[^64Cu]Cu-DOTATATE, metal not drawn] is ____.
Response line: 2.4

###

- METHOD NOTES: Timed organ biodistribution of [^64Cu]Cu-DOTATATE by ex vivo gamma counting
- Assay type: in vivo, mice
- SETTINGS: mouse, thoracic aorta, intravenous, 1.85 MBq, total radioactivity; female Apoe^-/- mice 12 weeks on Western Diet, 15 min after injection, median (IQR), N=3-8; read-out: Tissue radioactivity, thoracic aorta
RECORDED METRIC: tissue uptake at 0.25 h
Please answer in the form of a number followed by its unit of measurement.

Prompt line: Fill blank: measured tissue uptake at 0.25 h of the molecule C[C@@H](O)[C@H](NC(=O)[C@@H]1CSSC[C@H](NC(=O)[C@@H](Cc2ccccc2)NC(=O)CN2CCN(CC(=O)O)CCN(CC(=O)O)CCN(CC(=O)O)CC2)C(=O)N[C@@H](Cc2ccc(O)cc2)C(=O)N[C@H](Cc2c[nH]c3ccccc23)C(=O)N[C@@H](CCCCN)C(=O)N[C@@H]([C@@H](C)O)C(=O)N1)C(=O)O [[^64Cu]Cu-DOTATATE, metal not drawn] is ____.
Response line: 2 %ID/g

###

- METHOD NOTES: Organ biodistribution of [^68Ga]Ga-DOTATATE by ex vivo gamma counting
- Assay type: in vivo, New Zealand White rabbits
- SETTINGS: male, New Zealand White, rabbit, bladder, intravenous, 190 MBq, total radioactivity, male control rabbits, 200 min after tracer injection, median (IQR), N = 6; read-out: Tissue radioactivity, bladder
RECORDED METRIC: tissue uptake at 200 min (%ID/g)
Respond numerically; units are %ID/g and should not be typed.

Prompt line: Fill blank: measured tissue uptake at 200 min of the compound C[C@@H](O)[C@H](NC(=O)[C@@H]1CSSC[C@H](NC(=O)[C@@H](Cc2ccccc2)NC(=O)CN2CCN(CC(=O)O)CCN(CC(=O)O)CCN(CC(=O)O)CC2)C(=O)N[C@@H](Cc2ccc(O)cc2)C(=O)N[C@H](Cc2c[nH]c3ccccc23)C(=O)N[C@@H](CCCCN)C(=O)N[C@@H]([C@@H](C)O)C(=O)N1)C(=O)O [[^68Ga]Ga-DOTATATE, metal not drawn] is ____.
Response line: 0.053
